- Experimental system: TFPI (human TFPI-1α) as coated or added in the ELISA, microarray and enzymatic assays (human), P10646
- Condition details: modification not given
Metric: EC50 (nM)
Write it as a number; the unit nM goes unstated.

Recorded result, FQSKGNVFVTGYFARLRAKL [JBT0720] , EC50: 220
